Biological target: human CCR1 (Homo sapiens, UniProt P32246)
Sequence (P32246 1-355): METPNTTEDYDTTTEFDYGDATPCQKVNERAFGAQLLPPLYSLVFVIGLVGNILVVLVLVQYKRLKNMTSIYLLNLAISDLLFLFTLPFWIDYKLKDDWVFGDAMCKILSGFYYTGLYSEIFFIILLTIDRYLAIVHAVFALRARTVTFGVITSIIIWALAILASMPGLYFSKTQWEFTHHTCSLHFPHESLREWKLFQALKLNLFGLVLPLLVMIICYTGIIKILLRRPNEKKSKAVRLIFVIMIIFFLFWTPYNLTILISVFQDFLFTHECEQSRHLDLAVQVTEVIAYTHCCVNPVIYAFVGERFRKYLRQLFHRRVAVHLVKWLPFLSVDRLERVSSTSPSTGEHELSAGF
pKi by entry:
In simple prose, pKi is minus the logarithm base ten of a concentration in moles per litre.

molecule | pKi
C=CC(O)CC1CN(Cc2ccc(F)cc2)CCN1C(=O)COc1ccc(Cl)cc1 (stereo not shown) | 6.76
CCC1CN(Cc2ccc(F)cc2)CCN1C(=O)COc1ccc(Cl)cc1 (stereo not shown) | 7.82
COC(=O)CCC(=O)Nc1cc(Cl)ccc1OCC(=O)N1C[C@@H](C)N(Cc2ccc(F)cc2)C[C@@H]1C | 8.30

Recorded pKi (molecule CCN(C)C(C)c1cc(Cl)ccc1OCC(=O)N1C[C@@H](C)N(Cc2ccc(F)cc2)C[C@@H]1C (stereo partly shown) ): 7.74

Recorded pKi (molecule COC(=O)c1ccc(OC)cc1OCC(=O)N1C[C@@H](C)N(Cc2ccc(F)cc2)C[C@@H]1C ): 7.51

Recorded pKi (molecule C[C@@H]1CN(C(=O)COc2ccc(Cl)cc2CNC(N)=O)[C@@H](C)CN1Cc1ccc(F)cc1 ): 8.70

Recorded pKi (molecule C[C@@H]1CN(C(=O)COc2ccc(Cl)cc2N2C(=O)c3ccccc3C2=O)[C@@H](C)CN1Cc1ccc(F)cc1 ): 7.19

Recorded pKi (molecule C[C@@H]1CN(C(=O)COc2ccc(Cl)cc2NC(=O)CN)[C@@H](C)CN1Cc1ccc(F)cc1 ): 9.00

Recorded pKi (molecule CCCC(C)Nc1cc(Cl)ccc1OCC(=O)N1C[C@@H](C)N(Cc2ccc(F)cc2)C[C@@H]1C (stereo partly shown) ): 7.06

Recorded pKi (molecule O=C(COc1ccc(Cl)cc1)N1CCN(Cc2ccc(F)cc2)CC12CC2 ): 7.13

Recorded pKi (molecule COCC(=O)Nc1cc(Cl)ccc1OCC(=O)N1C[C@@H](C)N(Cc2ccc(F)cc2)C[C@@H]1C ): 8.52

Recorded pKi (molecule C[C@@H]1CN(Cc2ccc(F)cc2)[C@@H](CC#N)CN1C(=O)COc1ccc(Cl)cc1 ): 7.42

Recorded pKi (molecule C[C@@H]1CN(Cc2ccc(F)cc2)[C@@H](CN2CCOCC2)CN1C(=O)COc1ccc(Cl)cc1 ): 6.96

Recorded pKi (molecule C[C@@H]1CN(C(=O)COc2ccc(Cl)cc2NS(C)(=O)=O)[C@@H](C)CN1Cc1ccc(F)cc1 ): 8.22

Recorded pKi (molecule C[C@@H]1CN(C(=O)CC(NS(C)(=O)=O)c2ccc(Cl)cc2)[C@@H](C)CN1Cc1ccc(F)cc1 (stereo partly shown) ): 7.49

Recorded pKi (molecule CC(=O)Nc1cc(Cl)ccc1OCC(=O)N1CCN(Cc2ccc(F)cc2)CC1C (stereo not shown) ): 8.30
